// provenance: the supplement of paper PMC6555819

tested on: LXRa:RXRa (NR concentration 270 nM, RXRa partner concentration 90 nM); assay: PBM binding z-score (relative to random genomic background probes); higher = stronger binding; sequences stand for … in GC…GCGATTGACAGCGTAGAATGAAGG
Below, each entry is listed with its recorded PBM binding z-score.
A bare number is all that is needed in reply.

Can you look up the measured PBM binding z-score of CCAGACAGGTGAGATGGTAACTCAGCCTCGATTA for me?
-0.133

Can you look up the measured PBM binding z-score of CTCGAAAGGTCGTGCTCAGGTGCGTATACCAAAC for me?
3.72

Can you look up the measured PBM binding z-score of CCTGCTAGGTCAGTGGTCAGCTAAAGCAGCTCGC for me?
0.472

Can you look up the measured PBM binding z-score of ATATGTAGGTTATCGGGTCATTGAGTTTGCGCAT for me?
3.21

Can you look up the measured PBM binding z-score of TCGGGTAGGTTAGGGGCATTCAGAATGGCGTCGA for me?
1.32

Can you look up the measured PBM binding z-score of AGAATGAGGTTATTAAGTTCAGGGAATTGCGGTC for me?
3.29

====

test system: VDR homodimer (NR concentration 270 nM); experiment: PBM binding z-score (relative to random genomic background probes); higher = stronger binding; sequences stand for … in GC…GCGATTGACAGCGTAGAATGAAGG
quantity: PBM binding z-score
A bare number is all that is needed in reply.

Recorded PBM binding z-score for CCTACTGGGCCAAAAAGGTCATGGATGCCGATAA with VDR homodimer (NR concentration 270 nM), please?
1.81

Recorded PBM binding z-score for TCATATAGGTAAACAGGTGAAAATCCGTAAGTTA with VDR homodimer (NR concentration 270 nM), please?
0.265

Recorded PBM binding z-score for CCTACCGGGCCACGAAAGGTCATTGATTCAGTGA with VDR homodimer (NR concentration 270 nM), please?
2.22

Recorded PBM binding z-score for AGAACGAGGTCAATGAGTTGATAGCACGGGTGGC with VDR homodimer (NR concentration 270 nM), please?
5.27

New cases:
Recorded PBM binding z-score for CGTCCAAGGTCGATGCTAGGTCAGTGAAAGCATT with VDR homodimer (NR concentration 270 nM), please?
1.09

Recorded PBM binding z-score for CCTAGTTGGTCAAGGGCACACACGCTATAGGTAC with VDR homodimer (NR concentration 270 nM), please?
1.09

====

system: THRa:RXRa (NR concentration 90 nM, RXRa partner concentration 90 nM); assay: PBM binding z-score (relative to random genomic background probes); higher = stronger binding; sequences stand for … in GC…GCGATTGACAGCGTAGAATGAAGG
quantity: PBM binding z-score

// worked examples, PBM binding z-score included
Can you look up the measured PBM binding z-score of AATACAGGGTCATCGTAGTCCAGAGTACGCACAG for me?
4.18

Can you look up the measured PBM binding z-score of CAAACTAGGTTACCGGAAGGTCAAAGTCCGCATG for me?
3.68

New cases:
Can you look up the measured PBM binding z-score of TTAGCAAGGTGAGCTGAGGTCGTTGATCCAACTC for me?
4.75

Can you look up the measured PBM binding z-score of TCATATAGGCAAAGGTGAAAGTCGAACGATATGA for me?
1.22

Can you look up the measured PBM binding z-score of TCTTGTAGATCAGCAGGTTAAGAAAGCTGGCCAA for me?
-0.0256
